tested on: PBMC; assay: Antiinflammatory activity in human PBMC assessed as inhibition of LPS-induced IL1-beta production at 10 uM treated 30 mins before LPS challenge measured after 6 hrs by ELISA; type: functional
readout_type: inhibition at 10 µM (%)

- COc1ccc(-c2nnc(N/N=C/c3c(Cl)cccc3[N+](=O)[O-])nc2-c2ccc(OC)cc2)cc1: 2.81
- COc1ccc(/C=N/Nc2nnc(-c3ccc(OC)cc3)c(-c3ccc(OC)cc3)n2)cc1: 35.9
- COc1ccc(-c2nnc(N/N=C/c3ccc(O)c(OC)c3)nc2-c2ccc(OC)cc2)cc1: 84.3
- COc1ccc(-c2nnc(N/N=C/c3ccc(O)cc3O)nc2-c2ccc(OC)cc2)cc1: 51.8
- COc1ccc(-c2nnc(N/N=C/c3ccc([N+](=O)[O-])cc3)nc2-c2ccc(OC)cc2)cc1: 15.5
- COc1ccc(-c2nnc(N/N=C/c3cccc(O)c3O)nc2-c2ccc(OC)cc2)cc1: 78.2
- COc1ccc(-c2nnc(N/N=C/c3ccco3)nc2-c2ccc(OC)cc2)cc1: 84
- COc1ccc(-c2nnc(N/N=C/c3ccncc3)nc2-c2ccc(OC)cc2)cc1: 60.8

Data provenance: ChEMBL document CHEMBL2434930
